Read-out: glucuronosyltransferase (UGT1A1), UGT1A1 (gene 54658)
Test: CLD_UGT1A1_48hr: CellzDirect (CLD) Gene Expression Assay for glucuronosyltransferase (UGT1A1) at 48 hours (AID 2283709);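 also: actives increase expression relative to DMSO so potency refers to induction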
Inconclusive results are not listed. Activity calls are given as the source filed them. The calls were made as follows: active = hit-call score of the fitted dose curve at least 0.9, where 1 is the maximum; inconclusive = response in the unintended direction; inactive = score below 0.9.
Please answer using one outcome listed in 1.0 (active), 0.0 (inactive)

molecule=CNC(=O)ON=C(SC)C(=O)N(C)C assigned_category=0.0
molecule=CCCCOC(=O)c1ccccc1C(=O)O assigned_category=0.0
molecule=COP(=O)(OC)SCn1c(=O)oc2cc(Cl)cnc21 assigned_category=0.0
molecule=C=C(C)[C@H]1Cc2c(ccc3c2O[C@@H]2COc4cc(OC)c(OC)cc4[C@@H]2C3=O)O1 assigned_category=0.0
molecule=COc1cc(OC)nc(Sc2cccc(Cl)c2C(=O)O)n1 assigned_category=0.0
molecule=CSc1nnc(C(C)(C)C)c(=O)n1N assigned_category=0.0
molecule=S=C1NCCN1 assigned_category=0.0
molecule=CCCCN(CC)c1c([N+](=O)[O-])cc(C(F)(F)F)cc1[N+](=O)[O-] assigned_category=1.0
molecule="COP(=O)(OC)OC(Br)C(Cl)(Cl)Br (centres undefined)" assigned_category=0.0
molecule="COP(=O)(NC(C)=O)SC (centres undefined)" assigned_category=0.0

Problem: Status in this test for `CC(C)[C@H](C(=O)O[C@H](C#N)c1cccc(Oc2ccccc2)c1)c1ccc(Cl)cc1` ?
Solution: 1.0

Problem: Status in this test for `CSc1nc(NC(C)C)nc(NC(C)C)n1` ?
Solution: 0.0

Problem: Status in this test for `CCCOCC(=Nc1ccc(Cl)cc1C(F)(F)F)n1ccnc1` ?
Solution: 0.0

Problem: Status in this test for `CCNc1nc(Cl)nc(NC(C)(C)C#N)n1` ?
Solution: 0.0

Problem: Status in this test for CCOP(=O)(NC(C)C)Oc1ccc(SC)c(C)c1 (centres undefined) ?
Solution: 0.0

====

Assay: CCTE_Shafer_MEA_dev_interburst_interval_mean: CCTE's Neural Network Formation Assay for Mean Interburst Interval, Shafer Lab (AID 2284046);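 also: well-mean interburst interval of bursting electrodes as AUC over four recording days; curve fitted for decrease in interburst interval relative to DMSO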
Calls of active or inactive are those of the source. The calls were made as follows: active = hit-call score of the fitted dose curve at least 0.9, where 1 is the maximum; inactive = score below 0.9.
Please answer using one outcome listed in True (active), False (inactive)

A selection of reference data follows.
compound="CCCSP(=O)(OCC)Oc1ccc(Br)cc1Cl (stereo not drawn)" assigned_category=False
compound="CCOP(=O)(SC(C)CC)N1CCSC1=O (stereo not drawn)" assigned_category=False
compound=C[Si](Cn1cncn1)(c1ccc(F)cc1)c1ccc(F)cc1 assigned_category=False
compound="C#CCC1=C(C)C(OC(=O)C2C(C=C(C)C)C2(C)C)CC1=O (stereo not drawn)" assigned_category=False
compound=CCOP(=S)(OCC)Oc1cc(C)nc(C(C)C)n1 assigned_category=False
compound=S=C1NCCN1 assigned_category=False
compound=CC(=NC#N)N(C)Cc1ccc(Cl)nc1 assigned_category=False
compound=CSC1=N[C@@](C)(c2ccccc2)C(=O)N1Nc1ccccc1 assigned_category=False

Problem: Status in this test for `CC1=NNC(=O)N(/N=C/c2cccnc2)C1` ?
Solution: False

Problem: Status in this test for `O=[N+]([O-])c1cc(C(F)(F)F)c(Cl)c([N+](=O)[O-])c1Nc1ncc(C(F)(F)F)cc1Cl` ?
Solution: True

Problem: Status in this test for `CCOP(=S)(OCC)SCCSCC` ?
Solution: False

Problem: Status in this test for `CCCSP(=O)(OCC)SCCC` ?
Solution: False

Problem: Status in this test for `C[N+]1(C)CCCCC1` ?
Solution: False

====

Molecular target: Nuclear respiratory factor 1 (Homo sapiens)
Assay: ATG_NRF1_CIS: Attagene CIS-FACTORIAL HepG2 Assay for human Nuclear Respiratory Factor 1 (NRF1) Orphan Gene (AID 2282987)
Details: HepG2 NRF1 cis-element reporter, Attagene multiplex; actives raise or lower the signal
Calls of active or inactive are those of the source. Rule for the calls: active = hit-call score of the fitted dose curve at least 0.9, where 1 is the maximum; inactive = score below 0.9.
Outcome measure: outcome

chem_smiles=CC(C)N(C(=O)SCC(Cl)=C(Cl)Cl)C(C)C outcome_measure=outcome recorded_measurement=inactive
chem_smiles=CSC1=N[C@@](C)(c2ccccc2)C(=O)N1Nc1ccccc1 outcome_measure=outcome recorded_measurement=inactive
chem_smiles=CCc1cccc(CC)c1N(COC)C(=O)CCl outcome_measure=outcome recorded_measurement=inactive
chem_smiles=CC[C@H](C)[C@H]1O[C@]2(C=C[C@@H]1C)C[C@@H]1C[C@@H](C/C=C(\C)[C@@H](O[C@H]3C[C@H](OC)[C@@H](O[C@H]4C[C@H](OC)[C@@H](NC)[C@H](C)O4)[C@H](C)O3)[C@@H](C)/C=C/C=C3\CO[C@@H]4[C@H](O)C(C)=C[C@@H](C(=O)O1)[C@]34O)O2 outcome_measure=outcome recorded_measurement=inactive

====

Read-out: Cytochrome P450 7A1 (Homo sapiens) (UniProt P22680)
Experiment: LTEA_HepaRG_CYP7A1: Life Technologies and Expression Analysis (LTEA) Assay for Cytochrome P450 7A1 (CYP7A1) using HepaRG (AID 2283496)
Conditions: mRNA level, 48 h; actives raise or lower the signal
The source made the active and inactive calls. How the source made its calls: active means hit-call score of the fitted dose curve at least 0.9, where 1 is the maximum; inactive means score below 0.9.
Please answer using one outcome listed in 1 (yes) (active), 0 (no) (inactive)

compound=CC(=NC#N)N(C)Cc1ccc(Cl)nc1 assigned_category="0 (no)"

Problem: Status in this test for `CN(C)C(=O)Nc1cccc(C(F)(F)F)c1` ?
Solution: 0 (no)

Problem: Status in this test for `CCOP(=O)(OCC)Oc1cc(C)nc(C(C)C)n1` ?
Solution: 0 (no)

Problem: Status in this test for `CN(C)[C@@H]1C(=O)C(C(N)=O)=C(O)[C@@]2(O)C(=O)C3=C(O)c4c(O)cccc4[C@@](C)(O)[C@H]3[C@H](O)[C@@H]12` ?
Solution: 0 (no)

Problem: Status in this test for CCCSP(=O)(OCC)Oc1ccc(Br)cc1Cl (stereo not given) ?
Solution: 0 (no)

Problem: Status in this test for `Nc1nc(N)nc(NC2CC2)n1` ?
Solution: 0 (no)

Problem: Status in this test for CC(COc1ccc(Oc2ccccc2)cc1)Oc1ccccn1 (stereo not given) ?
Solution: 1 (yes)

Problem: Status in this test for COP(=O)(OC)OC(Br)C(Cl)(Cl)Br (stereo not given) ?
Solution: 0 (no)

Problem: Status in this test for `COc1cc(OC)nc(Sc2cccc(Cl)c2C(=O)O)n1` ?
Solution: 0 (no)

Problem: Status in this test for `C#CC(C)(C)NC(=O)c1cc(Cl)cc(Cl)c1` ?
Solution: 0 (no)

====

Tested on: SRD5A2 (gene 6716)
Assay: CCTE_Deisenroth_5AR_NBTE_ratio: CCTE's 5alpha-reductase NanoBRET Target Engagement Assay - Ratio, Deisenroth Lab (AID 2284322)
Conditions: actives raise or lower the signal
Description: CCTE_Deisenroth_5AR NBTE (5alpha-reductase NanoBRET Target Engagement Assay) is a cell-based, single-readout assay that uses HEK293T, a human kidney cell line, with measurements taken at 5 hours after chemical dosing in a 384 well plate. This assay includes a primary and secondary screen as well as an autofluorscence screen.CCTE_Deisenroth_5AR NBTE_ratio is one of four assay components calculated from the CCTE_Deisenroth_5AR NBTE assay. […]
Activity calls are given as the source filed them. The calls were made as follows: active = hit-call score of the fitted dose curve at least 0.9, where 1 is the maximum; inactive = score below 0.9.
Please answer using one outcome listed in 1 (yes) for active, 0 (no) for inactive

A selection of reference data follows.
chem_smiles=CCC(CC)Nc1c([N+](=O)[O-])cc(C)c(C)c1[N+](=O)[O-] assigned_category="0 (no)"
chem_smiles=CN(C)[C@@H]1C(=O)C(C(N)=O)=C(O)[C@@]2(O)C(=O)C3=C(O)c4c(O)cccc4[C@@](C)(O)[C@H]3[C@H](O)[C@@H]12 assigned_category="0 (no)"
chem_smiles=CC[C@H](C)[C@H]1O[C@]2(C=C[C@@H]1C)C[C@@H]1C[C@@H](C/C=C(\C)[C@@H](O[C@H]3C[C@H](OC)[C@@H](O[C@H]4C[C@H](OC)[C@@H](NC)[C@H](C)O4)[C@H](C)O3)[C@@H](C)/C=C/C=C3\CO[C@@H]4[C@H](O)C(C)=C[C@@H](C(=O)O1)[C@]34O)O2 assigned_category="1 (yes)"
chem_smiles=C[Si](Cn1cncn1)(c1ccc(F)cc1)c1ccc(F)cc1 assigned_category="0 (no)"
chem_smiles=C=C(C)[C@H]1Cc2c(ccc3c2O[C@@H]2COc4cc(OC)c(OC)cc4[C@@H]2C3=O)O1 assigned_category="1 (yes)"

For the next question, use this compound.
Problem: Status in this test for `CC(C)N(C(=O)SCC(Cl)=C(Cl)Cl)C(C)C` ?
Solution: 0 (no)

====

Read-out: Macrophage colony-stimulating factor (MCSF), CSF1 (gene 1435)
Test: BSK_hDFCGF_MCSF: BioMAP Diversity Plus: hDFCGF Assay for Macrophage colony-stimulating factor (MCSF) Biomarker Activity (AID 2283060)
Details: primary human foreskin fibroblasts; actives raise or lower the signal
Procedure: BSK_hDFCGF is a cell-based, multiplexed-readout assay that uses foreskin fibroblast, a human skin primary cell, with measurements taken at 24 hours after chemical dosing in a 96-well plate.BSK_hDFCGF_MCSF is an assay component measured in the BSK_hDFCGF assay. It measures M-CSF antibody related to regulation of gene expression using ELISA technology.Data from the assay component BSK_hDFCGF_MCSF was analyzed into 1 assay endpoint. […]
Calls of active or inactive are those of the source. The calls were made as follows: active = hit-call score of the fitted dose curve at least 0.9, where 1 is the maximum; inactive = score below 0.9.
Please answer using one outcome listed in true = active, false = inactive

A selection of reference data follows.
compound=N#CSCSC#N assigned_category=true
compound=CCC(CC)Nc1c([N+](=O)[O-])cc(C)c(C)c1[N+](=O)[O-] assigned_category=true

Problem: Status in this test for `CCNc1nc(Cl)nc(NC(C)(C)C#N)n1` ?
Solution: false

Problem: Status in this test for CCOC(=O)CC(SP(=O)(OC)OC)C(=O)OCC (stereo not drawn) ?
Solution: false

Problem: Status in this test for CCOP(=S)(OCC)OC(Cl)C(Cl)(Cl)Cl (stereo not drawn) ?
Solution: true

Problem: Status in this test for `CCCCOC(=O)[C@@H](C)Oc1ccc(Oc2ccc(C#N)cc2F)cc1` ?
Solution: false

Problem: Status in this test for `O=c1ccc(=O)[nH][nH]1` ?
Solution: false

Problem: Status in this test for `CCOP(=S)(OCC)Oc1ccc([N+](=O)[O-])cc1` ?
Solution: true

Ref: PubChem BioAssay (EPA / NIEHS)
